Target: Solute carrier family 22 member 1 (Homo sapiens)
Sequence (O15245 whole entry): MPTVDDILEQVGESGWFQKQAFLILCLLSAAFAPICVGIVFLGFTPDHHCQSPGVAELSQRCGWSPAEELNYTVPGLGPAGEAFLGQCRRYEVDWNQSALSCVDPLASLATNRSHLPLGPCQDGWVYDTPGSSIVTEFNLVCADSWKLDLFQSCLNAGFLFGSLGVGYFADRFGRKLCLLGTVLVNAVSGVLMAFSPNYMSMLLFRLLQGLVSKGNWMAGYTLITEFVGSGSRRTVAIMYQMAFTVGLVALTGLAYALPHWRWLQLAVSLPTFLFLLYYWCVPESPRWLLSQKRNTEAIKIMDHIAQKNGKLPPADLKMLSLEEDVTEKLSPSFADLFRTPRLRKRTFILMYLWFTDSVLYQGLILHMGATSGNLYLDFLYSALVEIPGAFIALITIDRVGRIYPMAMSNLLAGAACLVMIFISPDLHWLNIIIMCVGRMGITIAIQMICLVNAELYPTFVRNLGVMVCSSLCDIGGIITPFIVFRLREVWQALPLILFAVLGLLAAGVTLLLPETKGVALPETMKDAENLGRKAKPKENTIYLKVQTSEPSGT
Experiment: Inhibition of human OCT1-mediated ASP+ uptake expressed in HEK293 cells after 3 mins by fluorescence assay
Consider the following molecules; for each one, report its pIC50.
Numbers only, as −log10 of the molar value.

>  <molecule>
O=C1c2c(O)ccc(O)c2C(=O)c2c(NCCNCCO)ccc(NCCNCCO)c21 [MITOXANTRONE]

>  <measured-target>
Solute carrier family 22 member 1 (Homo sapiens)

>  <pIC50>
4.36

$$$$
>  <molecule>
N=C(N)c1ccc(OCCCCCOc2ccc(C(=N)N)cc2)cc1 [PENTAMIDINE]

>  <measured-target>
Solute carrier family 22 member 1 (Homo sapiens)

>  <pIC50>
4.66

$$$$
>  <molecule>
CC(C)(C)NC(=O)[C@@H]1CN(Cc2cccnc2)CCN1C[C@@H](O)C[C@@H](Cc1ccccc1)C(=O)N[C@H]1c2ccccc2C[C@H]1O

>  <measured-target>
Solute carrier family 22 member 1 (Homo sapiens)

>  <pIC50>
3.68

$$$$
>  <molecule>
[H]/N=C(\N/C(=N/[H])NCCCCCCNC(=N)NC(=N)Nc1ccc(Cl)cc1)Nc1ccc(Cl)cc1 [CHLORHEXIDINE]

>  <measured-target>
Solute carrier family 22 member 1 (Homo sapiens)

>  <pIC50>
6.68

$$$$
>  <molecule>
CCc1c2c(nc3ccc(OC(=O)N4CCC(N5CCCCC5)CC4)cc13)-c1cc3c(c(=O)n1C2)COC(=O)[C@]3(O)CC [IRINOTECAN]

>  <measured-target>
Solute carrier family 22 member 1 (Homo sapiens)

>  <pIC50>
4.68

$$$$

# next molecule below
// pIC50 lookup, key: Oc1c(Cl)cc(Cl)cc1Sc1cc(Cl)cc(Cl)c1O [BITHIONOL]
5.41

// provenance: ChEMBL document CHEMBL2311273
